Please go through the items and note down their Pseudo-neutralization IC50 (Luciferase).
target: SARS-CoV-2 spike glycoprotein (Wuhan-Hu-1 strain) on pseudotyped virus particles (SARS-CoV-2 (Wuhan-Hu-1 strain), UniProt P0DTC2 14-1273); assay: cell-based or functional assay
# value in nM; strip the unit string

// returns reported Pseudo-neutralization IC50 (Luciferase) for input Nb17 (VHH) VHH: HVQLVESGGGLVQAGGSLRLSCAASGSIFSSNAMSWYRQAPGKQRELVASITSGGNADYADSVKGRFTISRDKNTVYPEMSSLKPADTAVYYCHAVGQEASAYAPRAYWGQGTQVTVSS 1.1

Repeat for the following binder: Nb28 (VHH) VHH: HVQLVESGGGLVQAGGSLRLSCAASGRTFSTSTMDMGWFRQAPGKEREFVGADSWNDGRTYYADSVKGRFTISRDNAKNTLYLQMNNLKPEDTAVYYCAAETYSLYEKSDSWGYWGQGTQVTVSS 6

Okay, and Nb78 (VHH) VHH: QVQLVESGGGLVQAGGSLRLSCAISGASANRVGWFRRAPGKEREFVAAIGASGGMTNYLDSVKGRFTISRDNAKNTVYLQMNSLKPQDTAVYYCAARNIETAEYTYWGQGTQVTVSS ? 0.509

Same for Nb36 (VHH) VHH: HVQLVESGGGLVQAGGSLTLTCAASGRTFSSETMDMGWFRQAPGKEREFVAADSWNDGSTYYADSVKGRFTISRDSAKNTLYLQMNSLKPEDTAVYYCAAETYSIYEKDDSWGYWGQGTQVTVSS 7

Next entry: Nb11 (VHH) VHH: HVQLVESGGGLVQAGGSLRLSCAVSGASAERVGWFRRAPGKEREFVAAIGANGGSTNYLDSVKGRFTISRDNAKNTVYLQMNSLKPQDTAVYYCAARNLETFDYTYWGRGTQVTVSS 1

What about this binder? Nb21 (VHH) VHH: QVQLVESGGGLVQAGGSLRLSCAVSGLGAHRVGWFRRAPGKEREFVAAIGANGGNTNYLDSVKGRFTISRDNAKNTIYLQMNSLKPQDTAVYYCAARDIETAEYTYWGQGTQVTVSS 0.038

Origin of the recorded values: patent US20240043505A1
